Observed AC50, system Cannabinoid receptor 1 (Homo sapiens, UniProt P21554). Note: assay procedure not described here.

Sure, the documented AC50 for OCCN1CCN(CC/C=C2/c3ccccc3Sc3ccc(Cl)cc32)CC1 [ZUCLOPENTHIXOL] is > 10 µM

Sure, the documented AC50 for O=C1CN2Cc3c(ccc(Cl)c3Cl)N=C2N1 [ANAGRELIDE] is > 10 µM

Sure, the documented AC50 for C[C@]12CC[C@H](O)CC1=CC[C@@H]1[C@@H]2CC[C@]2(C)C(c3cccnc3)=CC[C@@H]12 [ABIRATERONE] is > 10 µM

Sure, the documented AC50 for CC#CCn1c(N2CCC[C@@H](N)C2)nc2c1c(=O)n(Cc1nc(C)c3ccccc3n1)c(=O)n2C [LINAGLIPTIN] is > 10 µM

Sure, the documented AC50 for O=C1CN=C(c2ccccc2)c2cc(Cl)ccc2N1 [NORDAZEPAM] is > 10 µM

Sure, the documented AC50 for O=C(Nc1nc(-c2cc(Cl)cs2)c(N2CCN(C3CCCCC3)CC2)s1)c1cnc(N2CCC(C(=O)O)CC2)c(Cl)c1 [AVATROMBOPAG] is > 10 µM

Sure, the documented AC50 for N[C@H](Cc1cc(I)c(Oc2cc(I)c(O)c(I)c2)c(I)c1)C(=O)O [DEXTROTHYROXINE] is > 10 µM

Sure, the documented AC50 for COC(=O)[C@H](c1ccccc1Cl)N1CCc2sccc2C1 [CLOPIDOGREL] is > 30 µM

# credit: ChEMBL document CHEMBL5291721
